Sourced from patent US9376420B2

The entries below come with measured Emax values attached.
target-or-system: human LXRβ (Homo sapiens)
Construct: expressed in transfected cells; host or cells: HEK293 cells (ATCC CRL-1573), transient transfection with pFA-hLXRβ/GAL4 and pUAS
Sequence (P55055 222-460 limits assumed): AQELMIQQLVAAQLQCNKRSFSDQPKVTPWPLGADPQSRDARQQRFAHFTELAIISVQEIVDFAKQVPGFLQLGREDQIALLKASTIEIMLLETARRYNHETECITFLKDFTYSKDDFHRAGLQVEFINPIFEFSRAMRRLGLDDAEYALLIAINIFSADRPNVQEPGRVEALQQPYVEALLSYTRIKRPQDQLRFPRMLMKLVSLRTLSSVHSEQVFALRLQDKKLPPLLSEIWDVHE
protocol-summary: Assay for Transcriptional Activity of LXRβ (GAL4-hLXRβ LBD luciferase reporter, transient transfection)
Assay type: cell-based
details: fold value in comparison with the control (DMSO-treated group); HEK293 cells transfected with pFA-hLXRβ/GAL4 and pUAS; 24 hours
quantity-name: Emax (fold)

>  <compound>
O=C(c1cccs1)N1CC=C(c2cccc(C3CC(C(O)(C(F)(F)F)C(F)(F)F)=NN3c3ccccc3Cl)c2)CC1 (stereo not shown)

>  <result-units>
fold

>  <observed-result>
49

$$$$
>  <compound>
CN(C)S(=O)(=O)c1cccc(-c2ccc(C3CC(C(O)(C(F)(F)F)C(F)(F)F)=NN3c3ccccc3Cl)cc2)c1 (stereo not shown)

>  <result-units>
fold

>  <observed-result>
56

$$$$
>  <compound>
O=S1(=O)CCN(c2ccc(C3CC(C(O)(C(F)(F)F)C(F)(F)F)=NN3c3ccccc3Cl)cc2)CC1 (stereo not shown)

>  <result-units>
fold

>  <observed-result>
39

$$$$
>  <compound>
OC(C1=NN(c2ccc(F)cc2F)C(c2ccc(-c3ccccn3)cc2)C1)(C(F)(F)F)C(F)(F)F (stereo not shown)

>  <result-units>
fold

>  <observed-result>
60

$$$$
